These data points were gathered from patent US10085986B2.

Target: UniProt P14920
Sequence (P14920 whole entry): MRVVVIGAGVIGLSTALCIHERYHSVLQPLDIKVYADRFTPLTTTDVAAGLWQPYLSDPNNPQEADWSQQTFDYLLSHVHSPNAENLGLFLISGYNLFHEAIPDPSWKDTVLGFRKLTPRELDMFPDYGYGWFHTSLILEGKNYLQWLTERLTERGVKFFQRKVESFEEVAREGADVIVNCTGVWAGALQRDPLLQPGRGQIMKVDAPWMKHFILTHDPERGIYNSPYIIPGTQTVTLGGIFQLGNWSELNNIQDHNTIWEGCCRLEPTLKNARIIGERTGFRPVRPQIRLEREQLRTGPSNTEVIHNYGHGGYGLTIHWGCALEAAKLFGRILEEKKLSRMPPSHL
Assay: In vitro DAAO enzyme assay (Amplex Red detection of H2O2 from D-Serine)
Settings: inhibition of DAAO activity in the presence of 10 mM D-Serine; 60 minutes at 25° C.
ASSAY_ENDPOINT: log10(IC50) (log10 of the value in nM)
Note: values are log10 of IC50 expressed in nM.

>  <COMPOUND>
O=c1[nH]c(SCc2cccc(Cl)c2)ncc1O

>  <log10(IC50)>
2.08

$$$$

# batch: return log10(IC50) for each of the 6 compounds below
1. O=c1[nH]c(SCc2ccccc2)nc(C(F)(F)F)c1O
2. O=c1[nH]c(CSc2ccccc2)ncc1O
3. Cc1cc(CSc2ncc(O)c(=O)[nH]2)n(C)n1
4. O=c1[nH]c(SCc2cccc(F)c2)ncc1O
5. O=c1[nH]c(COc2ccccc2)ncc1O
6. O=c1[nH]c(SCc2ccc(Cl)cc2)ncc1O

stdout:
3.43
3.45
3.20
2.23
3.51
2.34
